Data origin, for the record: ChEMBL document CHEMBL1152883

test: Metabolic stability in human liver microsomes assessed as clearance measured per mg of protein; format: ADME, Microsome; conditions: liver microsomes
Measured microsomal CLint accompanies every entry in the list below.
State just the number; it will be interpreted in µL/min/mg.

Qu. microsomal CLint lookup needed for Cc1nnc(C(C)C)n1C1CCN(C(C)C[C@H](NC(=O)C2CCOCC2)c2ccccc2)CC1 (mixture of isomers) , thanks.
Ans. 10.8

Qu. microsomal CLint lookup needed for Cc1nnc(C(C)C)n1[C@@H]1C[C@H]2CC[C@@H](C1)N2CC[C@H](NC(=O)C1CCC(F)(F)CC1)c1ccccc1 , thanks.
Ans. 20

----------
Measured Papp A→B accompanies every entry in the list below.
assay: Apparent permeability from apical to basolateral side of human Caco-2 cells; type: ADME, cell-based; details: read-out: permeability
State just the number; it will be interpreted in ×10⁻⁶ cm/s.

INSERT INTO results (compound, display_unit, value_observed) VALUES
  ('Cc1nc(C(C)C)n([C@@H]2C[C@H]3CC[C@@H](C2)N3CC[C@H](NC(=O)C2CCC(F)(F)CC2)c2ccccc2)n1', '×10⁻⁶ cm/s', 11);

Here is the next item to consider.
Qu. Papp A→B lookup needed for Cc1nnc(C(C)C)n1[C@@H]1C[C@H]2CC[C@@H](C1)N2CC[C@H](NC(=O)C1CCC(F)(F)CC1)c1ccccc1 [MARAVIROC] , thanks.
Ans. 1

----------
assay: Lipophilicity, log D at pH 7.4; format: physicochemical; conditions: buffer, read-out: logD
Measured logD accompanies every entry in the list below.

Consider the worked cases shown below.
INSERT INTO measurements (compound, value_observed) VALUES
  ('Cc1nnc(C(C)C)n1C1CCN(C(C)C[C@H](NC(=O)C2CCC(F)(F)CC2)c2ccccc2)CC1 (mixture of isomers; form 1)', 2),
  ('Cc1nnc(C(C)C)n1C1CCN(C(C)C[C@H](NC(=O)C2CC(F)(F)C2)c2ccccc2)CC1 (mixture of isomers; form 2)', 1.9),
  ('Cc1nnc(C(C)C)n1C1CCN(C(C)C[C@H](NC(=O)C2CCS(=O)(=O)CC2)c2ccccc2)CC1 (mixture of isomers)', 0.5);

Qu. logD lookup needed for Cc1nnc(C(C)C)n1C1CCN(C(C)C[C@H](NC(=O)C2CCCCC2)c2ccccc2)CC1 (mixture of isomers) , thanks.
Ans. 2.5

Qu. logD lookup needed for Cc1nnc(C(C)C)n1C1CCN([C@H](C)C[C@H](NC(=O)C2CC(F)(F)C2)c2ccccc2)CC1 , thanks.
Ans. 2.2

Qu. logD lookup needed for COC(=O)N[C@@H](CC(C)N1CCC(n2c(C)nnc2C(C)C)CC1)c1ccccc1 (mixture of isomers) , thanks.
Ans. 1.5

Qu. logD lookup needed for Cc1nnc(C(C)C)n1[C@@H]1C[C@H]2CC[C@@H](C1)N2CC[C@H](NC(=O)C1CCC(F)(F)CC1)c1ccccc1 [MARAVIROC] , thanks.
Ans. 1.9

----------
test: Clearance in iv dosed Sprague-Dawley rat; type: ADME, organism-based; details: in vivo
Measured clearance accompanies every entry in the list below.
State just the number; it will be interpreted in mL/min/kg.

INSERT INTO assay_data (mol_smiles, readout_label, display_unit, value_observed) VALUES
  ('Cc1nnc(C(C)C)n1[C@@H]1C[C@H]2CC[C@@H](C1)N2CC[C@H](NC(=O)C1CCC(F)(F)CC1)c1ccccc1', 'clearance', 'mL/min/kg', 74);

Here is the next item to consider.
Qu. clearance lookup needed for Cc1nnc(C(C)C)n1C1CCN([C@H](C)C[C@H](NC(=O)C2CC(F)(F)C2)c2ccccc2)CC1 , thanks.
Ans. 92

----------
assay: Oral bioavailability in Sprague-Dawley rat; assay type: ADME, organism-based; settings: in vivo
readout_label: bioavailability (%)
State just the number; it will be interpreted in %.

Qu. bioavailability lookup needed for Cc1nnc(C(C)C)n1C1CCN([C@H](C)C[C@H](NC(=O)C2CC(F)(F)C2)c2ccccc2)CC1 , thanks.
Ans. 6

----------
Measured logD accompanies every entry in the list below.
experiment: Lipophilicity, log D at pH 7.4; format: physicochemical; details: buffer, read-out: logD
Output: the number by itself.

Consider the worked cases shown below.
INSERT INTO results (molecule, value_observed) VALUES
  ('Cc1nc(C(C)C)n([C@@H]2C[C@H]3CC[C@@H](C2)N3CC[C@H](NC(=O)C2CCC(F)(F)CC2)c2ccccc2)n1', 2.7),
  ('Cc1nnc(C(C)C)n1C1CCN(C(C)C[C@H](NC(=O)CC2CC2)c2ccccc2)CC1 (mixture of isomers)', 1.9);

Qu. logD lookup needed for Cc1nnc(C(C)C)n1C1CCN([C@@H](C)C[C@H](NC(=O)C2CCC(F)(F)CC2)c2ccccc2)CC1 , thanks.
Ans. 2.2

----------
Measured Papp B→A accompanies every entry in the list below.
experiment: Apparent permeability from basolateral to apical side of human Caco-2 cells; format: ADME, cell-based; conditions: read-out: permeability
State just the number; it will be interpreted in ×10⁻⁶ cm/s.

INSERT INTO measurements (molecule, readout_label, display_unit, value_observed) VALUES
  ('Cc1nc(C(C)C)n([C@@H]2C[C@H]3CC[C@@H](C2)N3CC[C@H](NC(=O)C2CCC(F)(F)CC2)c2ccccc2)n1', 'Papp B→A', '×10⁻⁶ cm/s', 26);

Qu. Papp B→A lookup needed for Cc1nnc(C(C)C)n1[C@@H]1C[C@H]2CC[C@@H](C1)N2CC[C@H](NC(=O)C1CCC(F)(F)CC1)c1ccccc1 [MARAVIROC] , thanks.
Ans. 10

----------
test: Metabolic stability in human liver microsomes assessed as clearance measured per mg of protein; format: ADME, Microsome; conditions: liver microsomes
readout_label: microsomal CLint (µL/min/mg)
State just the number; it will be interpreted in µL/min/mg.

Consider the worked cases shown below.
INSERT INTO assay_data (molecule, readout_label, display_unit, value_observed) VALUES
  ('Cc1nnc(C(C)C)n1C1CCN(C(C)C[C@H](NC(=O)COCC(F)(F)F)c2ccccc2)CC1 (mixture of isomers)', 'microsomal CLint', 'µL/min/mg', 61.6),
  ('Cc1nnc(C(C)C)n1C1CCN(C(C)C[C@H](NC(=O)C2CCC(F)(F)CC2)c2ccccc2)CC1.Cl (mixture of isomers; form 2)', 'microsomal CLint', 'µL/min/mg', 16),
  ('Cc1nnc(C(C)C)n1C1CCN([C@H](C)C[C@H](NC(=O)C2CC(F)(F)C2)c2ccccc2)CC1', 'microsomal CLint', 'µL/min/mg', 12),
  ('Cc1nnc(C(C)C)n1C1CCN(C(C)C[C@H](NC(=O)C2CCCCC2)c2ccccc2)CC1 (mixture of isomers)', 'microsomal CLint', 'µL/min/mg', 139),
  ('Cc1nnc(C(C)C)n1C1CCN(C(C)C[C@H](NC(=O)CC(F)(F)F)c2ccccc2)CC1 (mixture of isomers)', 'microsomal CLint', 'µL/min/mg', 11.4);

Here is the next item to consider.
Qu. microsomal CLint lookup needed for Cc1nc(C(C)C)n([C@@H]2C[C@H]3CC[C@@H](C2)N3CC[C@H](NC(=O)C2CCC(F)(F)CC2)c2ccccc2)n1 , thanks.
Ans. 6

----------
assay: Volume of distribution in iv dosed Sprague-Dawley rat; type: ADME, organism-based; details: in vivo
Measured Vd accompanies every entry in the list below.
State just the number; it will be interpreted in L/kg.

INSERT INTO assay_data (compound, readout_label, display_unit, value_observed) VALUES
  ('Cc1nnc(C(C)C)n1C1CCN([C@H](C)C[C@H](NC(=O)C2CC(F)(F)C2)c2ccccc2)CC1', 'Vd', 'L/kg', 10);

Here is the next item to consider.
Qu. Vd lookup needed for Cc1nnc(C(C)C)n1[C@@H]1C[C@H]2CC[C@@H](C1)N2CC[C@H](NC(=O)C1CCC(F)(F)CC1)c1ccccc1 [MARAVIROC] , thanks.
Ans. 6.5

----------
assay: Metabolic stability in human liver microsomes assessed as clearance measured per mg of protein; format: ADME, Microsome; details: liver microsomes
Measured microsomal CLint accompanies every entry in the list below.

Qu. microsomal CLint lookup needed for Cc1nnc(C(C)C)n1C1CCN([C@@H](C)C[C@H](NC(=O)C2CCC(F)(F)CC2)c2ccccc2)CC1 , thanks.
Ans. < 7 µL/min/mg

Qu. microsomal CLint lookup needed for Cc1nnc(C(C)C)n1C1CCN(C(C)C[C@H](NC(=O)C(C)C)c2ccccc2)CC1 (mixture of isomers) , thanks.
Ans. < 8 µL/min/mg

Qu. microsomal CLint lookup needed for COC(=O)N[C@@H](CC(C)N1CCC(n2c(C)nnc2C(C)C)CC1)c1ccccc1 (mixture of isomers) , thanks.
Ans. < 7 µL/min/mg

----------
experiment: Metabolic stability in human liver microsomes assessed as clearance measured per mg of protein; format: ADME, Microsome; conditions: liver microsomes
Measured microsomal CLint accompanies every entry in the list below.

INSERT INTO measurements (compound, value_observed) VALUES
  ('Cc1nnc(C(C)C)n1C1CCN(C(C)C[C@H](NC(=O)N2CCOCC2)c2ccccc2)CC1 (mixture of isomers)', '< 8 µL/min/mg'),
  ('CC(=O)N1CCC(C(=O)N[C@@H](CC(C)N2CCC(n3c(C)nnc3C(C)C)CC2)c2ccccc2)CC1 (mixture of isomers)', '< 8 µL/min/mg');

Qu. microsomal CLint lookup needed for Cc1nnc(C(C)C)n1C1CCN(C(C)C[C@H](NC(=O)C2CC(F)(F)C2)c2ccccc2)CC1 (mixture of isomers; form 2) , thanks.
Ans. < 7 µL/min/mg
